The measurements presented in this section are drawn from patent US5444069A.

Target: AT2 receptor (whole rat brain) (Rattus norvegicus)
Construct: IC50 Values in whole Rat Brain Preparations; from tissue; host or cells: whole rat brain
Sequence (P35351 1-363): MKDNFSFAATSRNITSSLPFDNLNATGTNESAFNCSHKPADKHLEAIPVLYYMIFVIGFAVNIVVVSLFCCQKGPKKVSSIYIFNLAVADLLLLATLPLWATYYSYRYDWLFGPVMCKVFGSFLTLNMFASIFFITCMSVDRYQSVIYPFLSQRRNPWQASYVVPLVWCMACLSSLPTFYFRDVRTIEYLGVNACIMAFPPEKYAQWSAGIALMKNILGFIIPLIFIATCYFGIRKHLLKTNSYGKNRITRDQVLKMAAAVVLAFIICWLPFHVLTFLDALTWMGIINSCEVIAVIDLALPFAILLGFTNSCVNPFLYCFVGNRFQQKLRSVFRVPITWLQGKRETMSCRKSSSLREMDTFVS
Test: angiotensin II receptor binding in whole rat brain (DTT protocol)
Settings: whole rat brain; DTT included to eliminate AT1 binding; read-out: IC50 Values in whole Rat Brain Preparations
pIC50: −log10 of the molar value.
Property name: pIC50

Example results:
• O=C(O)[C@@H]1Cc2c(ncn2Cc2ccccc2)CN1C(=O)C(c1ccccc1)c1ccccc1 = 5.42
• O=C(O)[C@@H]1Cc2c(ncn2Cc2ccc(C(F)(F)F)cc2)CN1C(=O)C(c1ccccc1)c1ccccc1 = 6.11

[1] O=C(O)[C@@H]1Cc2c(ncn2CCC23CC4CC(CC(C4)C2)C3)CN1C(=O)C(c1ccccc1)c1ccccc1
[2] Cc1cc(Cn2cnc3c2C[C@@H](C(=O)O)N(C(=O)C(c2ccccc2)c2ccccc2)C3)cc(I)c1O
[3] Cc1cccc(Cn2cnc3c2C[C@@H](C(=O)O)N(C(=O)C(c2ccccc2)c2ccccc2)C3)c1
Highest pIC50 first, then in falling order down to the smallest. Provide the ranking by listing each label in its place in the requested order.
1, 2, 3

====

Target: AT2 receptor (whole rat brain) (Rattus norvegicus)
Construct: IC50 Values in whole Rat Brain Preparations; from tissue; host or cells: whole rat brain
Sequence (P35351 1-363): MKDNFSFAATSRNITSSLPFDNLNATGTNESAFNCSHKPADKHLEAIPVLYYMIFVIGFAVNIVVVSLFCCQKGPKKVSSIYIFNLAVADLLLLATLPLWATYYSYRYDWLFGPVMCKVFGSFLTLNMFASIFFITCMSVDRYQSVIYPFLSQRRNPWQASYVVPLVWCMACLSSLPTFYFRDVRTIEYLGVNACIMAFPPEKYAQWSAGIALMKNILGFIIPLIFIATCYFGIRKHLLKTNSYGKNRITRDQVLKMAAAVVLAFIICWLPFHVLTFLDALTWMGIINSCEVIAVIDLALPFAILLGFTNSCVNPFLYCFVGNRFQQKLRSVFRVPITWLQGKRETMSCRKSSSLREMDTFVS
Assay: angiotensin II receptor binding in whole rat brain (DTT protocol)
Property name: pIC50
pIC50 is a log-scale quantity: -log10 of the concentration expressed in molar.

Field request: pIC50 | item: Cc1cc(Cn2cnc3c2C[C@@H](C(=O)O)N(C(=O)C(c2ccccc2)c2ccccc2)C3)ccc1N(C)C
6.70
